Test system: Aβ42
Experiment: Aβ42 IC50 assay (SHSYSY-APP cell-based screening, UCSD sandwich Aβ42 ELISA)
Quick reference: IC50 of the listed items.
Please state the figure in nM; there is no need to write the unit.

Would you please look over these solved cases?
>>> obs_value("COC[C@H](Nc1nnc(-c2ccc(-n3cnc(C)c3)c(OC)n2)cc1C)c1ccc(F)cc1 [Example 87]")
11.5
>>> obs_value("COc1nc(-c2cc(C)c(N[C@@H](C)c3ccc(F)cc3C(F)(F)F)nn2)ccc1-n1cnc(C)c1 [Example 82]")
3.5
>>> obs_value("COc1nc(-c2nnc(N[C@@H](C)c3ccc(F)cc3)cc2C)ccc1-n1cnc(C)c1 [Example 27]")
21
>>> obs_value("COc1nc(-c2cc(C)c(N[C@@H](C)c3c(F)cc(F)cc3F)nn2)ccc1-n1cnc(C)c1 [Example 75]")
3.5
>>> obs_value("COc1cccc([C@H](C)Nc2nnc(-c3ccc(-n4cnc(C)c4)c(OC)n3)cc2C)c1 [Example 44]")
10.5
>>> obs_value("COc1nc(-c2cc(C)c(N[C@@H](C)C(C)(C)C)nn2)ccc1-n1cnc(C)c1 [Example 76]")
29
>>> obs_value("COc1nc(-c2cc(C)c(N[C@@H]3C[C@H]3c3ccc(F)c(F)c3)nn2)ccc1-n1cnc(C)c1 [Example 83]")
27

Continue with the next compound.
Q: Query (compound): CCc1cc(-c2ccc(-n3cnc(C)c3)c(OC)n2)nnc1NCc1ccc(F)cc1 [Example 8] ; field requested: IC50
Result: 33
